Consider the following compounds; for each one, report its HC50 at 0.5 h.
assay: in vitro; details: human, fresh human red blood cells (washed), pH 7.4
Non-standard residues stand in square brackets, D forms with d. Residues, ends and D or L forms follow the SMILES beside them. dDip = N[C@@H](C(=O)O)C(c1ccccc1)c1ccccc1; Dip = N[C@H](C(=O)O)C(c1ccccc1)c1ccccc1; 2Nal = N[C@@H](Cc1ccc2ccccc2c1)C(=O)O
Kindly answer with a numeric value in µg/mL, unit omitted.

Provide only the value of recorded HC50 at 0.5 h for N=C(N)NCCC[C@@H]1NC(=O)[C@@H](CCCNC(=N)N)NC(=O)[C@H](CCCNC(=N)N)NC(=O)[C@@H](CCCNC(=N)N)NC(=O)[C@@H](C(c2ccccc2)c2ccccc2)NC(=O)[C@H](C(c2ccccc2)c2ccccc2)NC(=O)[C@@H](C(c2ccccc2)c2ccccc2)NC1=O [IFX-069, c[arg-Arg-arg-Arg-dip-Dip-dip]] (cyclo([dR]R[dR]R[dDip][Dip][dDip])) 200

Note HC50 at 0.5 h for the compound shown: N=C(N)NCCC[C@@H]1NC(=O)[C@@H](CCCNC(=N)N)NC(=O)[C@H](CCCNC(=N)N)NC(=O)[C@@H](CCCNC(=N)N)NC(=O)[C@@H](C(c2ccccc2)c2ccccc2)NC(=O)[C@@H](C(c2ccccc2)c2ccccc2)NC(=O)[C@@H](C(c2ccccc2)c2ccccc2)NC1=O [IFX-068, c[arg-Arg-arg-Arg-dip-dip-dip]] (cyclo([dR]R[dR]R[dDip][dDip][dDip])) 280

Please give the documented HC50 at 0.5 h of NCCCC[C@H]1NC(=O)[C@H](Cc2ccc3ccccc3c2)NC(=O)[C@H](Cc2ccc3ccccc3c2)NC(=O)[C@H](Cc2c[nH]c3ccccc23)NC(=O)[C@@H](CCCCN)NC(=O)[C@@H](CCCCN)NC(=O)[C@@H](CCCCN)NC(=O)[C@@H](CCCCN)NC1=O [IFX-134, c[lys-lys-lys-lys-lys-Trp-NaI-NaI]] (cyclo([2Nal][2Nal][dK][dK][dK][dK][dK]W)) 890

---

system: human red blood cells; parameters: unit not given beside the values
Non-standard residues stand in square brackets, D forms with d. Residues, ends and D or L forms follow the SMILES beside them. 2Nal = N[C@@H](Cc1ccc2ccccc2c1)C(=O)O
testReadout: HC50
Respond numerically, and do not add a unit to the figure.

Return the recorded HC50 value; entry: N=C(N)NCCC[C@H](NC(=O)[C@H](CCCNC(=N)N)NC(=O)[C@@H](N)CCCNC(=N)N)C(=O)N[C@@H](Cc1c[nH]c2ccccc12)C(=O)N[C@@H](Cc1ccc2ccccc2c1)C(=O)N[C@@H](Cc1ccc2ccccc2c1)C(=O)O [IFX-023-1, NH2-R-R-R-Trp-NaI-NaI-OH] (H-RRRW[2Nal][2Nal]-OH) 495

---

test system: human red blood cells; design: unit not given beside the values
Non-standard residues stand in square brackets, D forms with d. Residues, ends and D or L forms follow the SMILES beside them. 2Nal = N[C@@H](Cc1ccc2ccccc2c1)C(=O)O; d2Nal = N[C@H](Cc1ccc2ccccc2c1)C(=O)O; Dab = NCC[C@H](N)C(=O)O
testReadout: HC50

Note HC50 for the molecule shown: N=C(N)NCCC[C@@H]1NC(=O)[C@H](CCN)NC(=O)[C@@H](CCCNC(=N)N)NC(=O)[C@H](CCCNC(=N)N)NC(=O)[C@@H](Cc2ccc3ccccc3c2)NC(=O)[C@@H](Cc2ccc3ccccc3c2)NC(=O)[C@H](Cc2c[nH]c3ccccc23)NC(=O)[C@@H](CCCNC(=N)N)NC1=O [IFX-055, c[Arg-arg-Dab-Arg-arg-Trp-naI-naI]] (cyclo([Dab]R[dR]W[d2Nal][d2Nal]R[dR])) 575

Return reported HC50. Input molecule: N=C(N)NCCC[C@H](NC(=O)[C@H](CCCNC(=N)N)NC(=O)[C@H](Cc1ccc2ccccc2c1)NC(=O)[C@H](Cc1ccc2ccccc2c1)NC(=O)[C@H](CCCNC(=N)N)NC(=O)[C@@H](N)CCCNC(=N)N)C(=O)N[C@@H](Cc1ccc2ccccc2c1)C(=O)O [IFX-019-1, NH2-Arg-Arg-NaI-NaI-Arg-Arg-NaI-OH] (H-RR[2Nal][2Nal]RR[2Nal]-OH) 395

Give reported HC50 value for N=C(N)NCCC[C@H](NC(=O)[C@H](CCCNC(=N)N)NC(=O)[C@H](CCCNC(=N)N)NC(=O)[C@H](CCCNC(=N)N)NC(=O)[C@@H](N)CCCNC(=N)N)C(=O)N[C@@H](Cc1ccc2ccccc2c1)C(=O)N[C@@H](Cc1ccc2ccccc2c1)C(=O)N[C@@H](Cc1ccc2ccccc2c1)C(=O)O [IFX-013-1, NH2-Arg-Arg-Arg-Arg-Arg-NaI-NaI-NaI-OH] (H-RRRRR[2Nal][2Nal][2Nal]-OH) 200

---

I'd be grateful if you could share measured HC50 at 0.5 h for these entries.
assay: in vitro; details: human, fresh human red blood cells (washed), pH 7.4
Non-standard residues stand in square brackets, D forms with d. Residues, ends and D or L forms follow the SMILES beside them. 2Nal = N[C@@H](Cc1ccc2ccccc2c1)C(=O)O; d2Nal = N[C@H](Cc1ccc2ccccc2c1)C(=O)O
// return the numeric value with its unit appended

Let me know recorded HC50 at 0.5 h for N=C(N)NCCC[C@@H]1NC(=O)[C@H](CCCNC(=N)N)NC(=O)[C@@H](Cc2ccc3ccccc3c2)NC(=O)[C@@H](Cc2ccc3ccccc3c2)NC(=O)[C@H](Cc2c[nH]c3ccccc23)NC(=O)[C@@H](CCCNC(=N)N)NC(=O)[C@@H](CCCNC(=N)N)NC1=O [IFX-116, c[Arg-Arg-arg-arg-Trp-naI-naI]] (cyclo(RR[dR][dR]W[d2Nal][d2Nal])) , thanks. 480 µg/mL

# return recorded HC50 at 0.5 h for entry N=C(N)NCCC[C@@H]1NC(=O)[C@H](CCCNC(=N)N)NC(=O)[C@H](CCCNC(=N)N)NC(=O)[C@@H](Cc2ccc3ccccc3c2)NC(=O)[C@@H](Cc2ccc3ccccc3c2)NC(=O)[C@@H](Cc2ccc3ccccc3c2)NC(=O)[C@H](CCCNC(=N)N)NC1=O [IFX-086, c[Arg-Arg-Arg-Arg-naI-naI-naI]] (cyclo(RRRR[d2Nal][d2Nal][d2Nal])) 155 µg/mL

Tell me its HC50 at 0.5 h given N=C(N)NCCC[C@@H]1NC(=O)[C@H](CCCNC(=N)N)NC(=O)[C@H](CCCNC(=N)N)NC(=O)[C@H](CCCNC(=N)N)NC(=O)[C@@H](Cc2ccc3ccccc3c2)NC(=O)[C@H](Cc2ccc3ccccc3c2)NC(=O)[C@H](Cc2c[nH]c3ccccc23)NC1=O [IFX-102, c[Arg-Arg-Arg-Arg-Trp-NaI-naI]] (cyclo([2Nal][d2Nal]RRRRW)) as the entry. 200 µg/mL

---

Provide the recorded HC50 for the entries that follow.
tested on: human red blood cells; set-up: unit not given beside the values
Non-standard residues stand in square brackets, D forms with d. Residues, ends and D or L forms follow the SMILES beside them. Dip = N[C@H](C(=O)O)C(c1ccccc1)c1ccccc1
Output: the number by itself.

Give measured HC50 for N=C(N)NCCC[C@@H]1NC(=O)[C@H](CCCNC(=N)N)NC(=O)[C@H](CCCNC(=N)N)NC(=O)[C@H](C(c2ccccc2)c2ccccc2)NC(=O)[C@H](C(c2ccccc2)c2ccccc2)NC(=O)[C@H](C(c2ccccc2)c2ccccc2)NC(=O)[C@H](CCCNC(=N)N)NC1=O [IFX-008, c[Arg-Arg-Arg-Arg-Dip-Dip-Dip]] (cyclo(RRRR[Dip][Dip][Dip])) (human red blood cells). 190

# lookup: human red blood cells HC50, key = N=C(N)NCCC[C@@H]1NC(=O)[C@H](CCCNC(=N)N)NC(=O)[C@H](CCCNC(=N)N)NC(=O)[C@H](C(c2ccccc2)c2ccccc2)NC(=O)[C@H](C(c2ccccc2)c2ccccc2)NC(=O)[C@H](Cc2c[nH]c3ccccc23)NC1=O [IFX-020, c[Arg-Arg-Arg-Trp-Dip-Dip]] (cyclo([Dip][Dip]RRRW)) 180

---

test system: Pseudomonas aeruginosa (ATCC 27883); details: ATCC 27883
Non-standard residues stand in square brackets, D forms with d. Residues, ends and D or L forms follow the SMILES beside them. 2Nal = N[C@@H](Cc1ccc2ccccc2c1)C(=O)O
testReadout: MIC P. aeruginosa ATCC 27883 (µg/mL)
Answer in µg/mL, number only, no unit symbol.

Input C[C@@H]1NC(=O)[C@H](C)NC(=O)[C@H](CCCNC(=N)N)NC(=O)[C@H](CCCNC(=N)N)NC(=O)[C@H](CCCNC(=N)N)NC(=O)[C@H](CCCNC(=N)N)NC(=O)[C@H](C)NC(=O)[C@H](C)NC(=O)[C@H](Cc2c[nH]c3ccccc23)NC(=O)[C@H](Cc2c[nH]c3ccccc23)NC(=O)[C@H](Cc2c[nH]c3ccccc23)NC(=O)[C@H](Cc2c[nH]c3ccccc23)NC1=O [IFX-045] (cyclo(AARRRRAAWWWW)) , output reported MIC P. aeruginosa ATCC 27883. 50

For the compound N=C(N)NCCC[C@H]1NC(=O)[C@@H](CCCNC(=N)N)NC(=O)[C@@H](CCCNC(=N)N)NC(=O)[C@@H](Cc2c[nH]c3ccccc23)NC(=O)[C@@H](Cc2c[nH]c3ccccc23)NC(=O)[C@@H](Cc2c[nH]c3ccccc23)NC(=O)[C@@H](Cc2c[nH]c3ccccc23)NC(=O)[C@@H](CCCNC(=N)N)NC(=O)[C@@H](CCCNC(=N)N)NC1=O [IFX-037, c[arg-arg-arg-arg-arg-trp-trp-trp-trp]] , give its measured MIC P. aeruginosa ATCC 27883 value. 25

Please report the measured MIC P. aeruginosa ATCC 27883 for N=C(N)NCCC[C@H](NC(=O)[C@H](CCCNC(=N)N)NC(=O)[C@H](CCCNC(=N)N)NC(=O)[C@@H](N)CCCNC(=N)N)C(=O)N[C@@H](Cc1c[nH]c2ccccc12)C(=O)N[C@@H](Cc1ccc2ccccc2c1)C(=O)N[C@@H](Cc1ccc2ccccc2c1)C(=O)O [IFX-029-1, NH2-R-R-R-R-Trp-NaI-NaI-OH] (H-RRRRW[2Nal][2Nal]-OH) 50
